target: BRAF (Homo sapiens, UniProt P15056); assay: Kinase profiling test, BRAF; assay type: biochemical
Sequence (P15056 whole entry): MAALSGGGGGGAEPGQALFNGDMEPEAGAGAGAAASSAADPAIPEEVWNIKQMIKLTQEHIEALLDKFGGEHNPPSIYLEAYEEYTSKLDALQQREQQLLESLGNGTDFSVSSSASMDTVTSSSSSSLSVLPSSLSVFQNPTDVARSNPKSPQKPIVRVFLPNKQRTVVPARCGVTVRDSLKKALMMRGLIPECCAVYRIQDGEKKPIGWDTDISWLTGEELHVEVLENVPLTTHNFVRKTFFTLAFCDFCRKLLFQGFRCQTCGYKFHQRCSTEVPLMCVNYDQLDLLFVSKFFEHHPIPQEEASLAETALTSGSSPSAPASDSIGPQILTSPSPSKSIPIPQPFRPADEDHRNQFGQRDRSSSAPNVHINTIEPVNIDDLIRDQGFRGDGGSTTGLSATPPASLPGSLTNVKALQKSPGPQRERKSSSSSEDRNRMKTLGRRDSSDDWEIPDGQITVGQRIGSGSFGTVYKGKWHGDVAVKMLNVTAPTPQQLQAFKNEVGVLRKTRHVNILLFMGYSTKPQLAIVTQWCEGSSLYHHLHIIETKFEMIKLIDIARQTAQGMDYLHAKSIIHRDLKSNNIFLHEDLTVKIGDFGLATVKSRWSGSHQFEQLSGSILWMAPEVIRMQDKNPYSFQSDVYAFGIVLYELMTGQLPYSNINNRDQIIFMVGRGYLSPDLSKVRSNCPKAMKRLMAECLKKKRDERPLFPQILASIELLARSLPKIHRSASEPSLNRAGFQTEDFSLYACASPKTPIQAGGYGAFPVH
measurement type: IC50 (µM)
Answers are plain numbers, in µM.

The molecule listed as CC(=O)c1nn(-c2ccc(C)cc2)/c(=N/N=C(\C)c2ccc(NC(=O)c3ccccc3)cc2)s1 [Compound 20b] has a reported IC50 of 5.84

* * *

target: EGFR (Homo sapiens)
Sequence (P00533 25-1210): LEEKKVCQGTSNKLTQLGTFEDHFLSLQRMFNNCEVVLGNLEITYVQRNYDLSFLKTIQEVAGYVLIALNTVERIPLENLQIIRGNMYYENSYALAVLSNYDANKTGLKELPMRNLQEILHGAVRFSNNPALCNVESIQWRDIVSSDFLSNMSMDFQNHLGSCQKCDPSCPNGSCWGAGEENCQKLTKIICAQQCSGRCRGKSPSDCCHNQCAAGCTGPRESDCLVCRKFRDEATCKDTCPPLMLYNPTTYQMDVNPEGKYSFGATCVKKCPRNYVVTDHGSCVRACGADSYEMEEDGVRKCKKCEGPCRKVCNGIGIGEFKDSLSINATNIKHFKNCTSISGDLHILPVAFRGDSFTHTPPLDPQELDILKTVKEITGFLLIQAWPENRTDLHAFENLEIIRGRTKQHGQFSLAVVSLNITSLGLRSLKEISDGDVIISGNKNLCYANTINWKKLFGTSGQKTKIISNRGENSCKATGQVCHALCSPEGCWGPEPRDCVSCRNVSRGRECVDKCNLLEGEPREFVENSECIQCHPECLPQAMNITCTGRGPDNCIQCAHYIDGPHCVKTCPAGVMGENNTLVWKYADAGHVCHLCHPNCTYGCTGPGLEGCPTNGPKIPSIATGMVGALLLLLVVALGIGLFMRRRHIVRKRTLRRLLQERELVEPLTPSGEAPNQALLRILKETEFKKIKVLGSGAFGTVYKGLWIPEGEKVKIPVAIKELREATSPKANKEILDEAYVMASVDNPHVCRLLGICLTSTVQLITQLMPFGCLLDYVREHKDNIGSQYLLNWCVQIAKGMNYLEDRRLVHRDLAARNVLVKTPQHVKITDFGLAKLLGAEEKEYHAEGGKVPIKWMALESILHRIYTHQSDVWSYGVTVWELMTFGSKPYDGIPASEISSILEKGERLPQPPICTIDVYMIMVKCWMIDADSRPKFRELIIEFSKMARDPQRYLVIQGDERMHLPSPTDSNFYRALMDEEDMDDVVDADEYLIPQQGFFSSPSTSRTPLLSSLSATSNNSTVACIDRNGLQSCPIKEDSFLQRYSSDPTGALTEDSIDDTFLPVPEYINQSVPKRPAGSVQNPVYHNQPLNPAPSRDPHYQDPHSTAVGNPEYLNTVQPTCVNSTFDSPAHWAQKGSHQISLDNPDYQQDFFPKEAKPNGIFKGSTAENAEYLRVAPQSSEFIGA
measurement type: IC50 (µM)
Numbers only, in µM.

Value of measured IC50 for the entry CC(=O)c1nn(-c2ccc(C)cc2)/c(=N/N=C(\C)c2ccc(NC(=O)c3ccccc3)cc2)s1 [Compound 20b] : 1.43

* * *

molecular target: VEGFR-2 (Homo sapiens, UniProt P35968); experiment: biochemical; details: VEGFR-2 inhibition
Sequence (P35968 20-1356): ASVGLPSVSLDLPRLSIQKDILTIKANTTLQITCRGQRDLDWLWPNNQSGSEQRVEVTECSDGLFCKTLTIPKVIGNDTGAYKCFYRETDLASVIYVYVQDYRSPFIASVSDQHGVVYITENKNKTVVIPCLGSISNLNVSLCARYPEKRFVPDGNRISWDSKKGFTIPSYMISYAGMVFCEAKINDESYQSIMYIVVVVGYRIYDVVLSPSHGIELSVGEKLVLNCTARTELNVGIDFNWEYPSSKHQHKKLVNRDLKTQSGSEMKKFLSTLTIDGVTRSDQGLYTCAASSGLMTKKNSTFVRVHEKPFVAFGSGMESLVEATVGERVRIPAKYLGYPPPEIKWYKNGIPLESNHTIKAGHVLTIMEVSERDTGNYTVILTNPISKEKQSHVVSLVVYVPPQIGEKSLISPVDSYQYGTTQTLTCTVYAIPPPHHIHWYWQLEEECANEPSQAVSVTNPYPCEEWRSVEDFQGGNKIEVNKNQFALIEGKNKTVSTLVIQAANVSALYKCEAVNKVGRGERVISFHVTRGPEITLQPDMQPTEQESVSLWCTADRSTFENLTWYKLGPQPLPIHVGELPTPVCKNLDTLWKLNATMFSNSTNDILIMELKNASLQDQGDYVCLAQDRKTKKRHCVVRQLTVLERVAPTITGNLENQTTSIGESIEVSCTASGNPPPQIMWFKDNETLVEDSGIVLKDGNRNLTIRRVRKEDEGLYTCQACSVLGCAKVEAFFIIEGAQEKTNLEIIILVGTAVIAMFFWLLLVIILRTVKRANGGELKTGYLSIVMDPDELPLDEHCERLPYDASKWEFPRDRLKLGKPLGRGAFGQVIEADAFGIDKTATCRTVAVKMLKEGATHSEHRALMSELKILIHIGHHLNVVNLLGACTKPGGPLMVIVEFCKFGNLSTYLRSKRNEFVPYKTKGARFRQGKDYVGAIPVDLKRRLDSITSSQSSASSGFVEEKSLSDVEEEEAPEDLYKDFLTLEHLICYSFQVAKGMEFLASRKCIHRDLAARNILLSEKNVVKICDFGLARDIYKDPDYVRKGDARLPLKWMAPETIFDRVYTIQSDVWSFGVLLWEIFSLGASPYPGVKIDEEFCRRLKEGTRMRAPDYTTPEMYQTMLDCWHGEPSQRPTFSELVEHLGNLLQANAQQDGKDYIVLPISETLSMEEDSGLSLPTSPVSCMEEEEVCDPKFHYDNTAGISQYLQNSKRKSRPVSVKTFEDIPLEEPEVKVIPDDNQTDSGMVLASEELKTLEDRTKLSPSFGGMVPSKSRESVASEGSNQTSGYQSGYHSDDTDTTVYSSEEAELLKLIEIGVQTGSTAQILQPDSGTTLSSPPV
measurement type: pIC50
Numbers only, as −log10 of the molar value.

According to the records, this compound CC(=O)c1nn(-c2ccc(C)cc2)/c(=N/N=C(\C)c2ccc(NC(=O)c3ccccc3)cc2)s1 [Compound 20b] displays pIC50 of 7.62
